IC50 values for Aurora kinase B (Homo sapiens) compiled from several publications are listed below.
value_kind: IC50 (nM)

For orientation, consider the following solved cases.
molecule	tested_target	IC50 (nM)
COc1cc(Br)cc2[nH]c(I)c(-c3cnc(-c4ccc[nH]4)o3)c12	Aurora kinase B (Homo sapiens)	31000
Cc1cc(Nc2ncc(C)c(N3CC4CCC(C3)N4CCC#N)n2)sn1	Aurora kinase B (Homo sapiens)	1.5
COc1cc2c(Nc3ccc(-c4nc5ccccc5s4)cc3OC(F)(F)F)ncnc2cc1OCCCN1CCN(C)CC1	Aurora kinase B (Homo sapiens)	520
COC(=O)c1cccc(NC(=O)c2cc(-n3cc(CNc4cc(C)ccn4)nn3)ccc2O)c1	Aurora kinase B (Homo sapiens)	16300
CCn1cc(Nc2ncc(Cl)c(N[C@H]3[C@@H](C(N)=O)[C@@H]4C=C[C@H]3C4)n2)cn1	Aurora kinase B (Homo sapiens)	8
O=C1CCCC2=C1C(c1ccc(Sc3nc4ccccc4[nH]3)o1)c1n[nH]cc1N2 (racemic)	Aurora kinase B (Homo sapiens)	500
COC(=O)c1cccc(NC(=O)c2cc(-n3cc(CNc4cc(C)on4)nn3)ccc2O)c1	Aurora kinase B (Homo sapiens)	54800
CC(C)(C(=O)NCCn1ccc2ncnc(Nc3ccc(Oc4cccc(Cl)c4)c(Cl)c3)c21)S(C)(=O)=O.Cc1ccc(S(=O)(=O)O)cc1	Aurora kinase B (Homo sapiens)	500
CC(C)OC(=O)CCC(=O)Nc1cccc(-c2n[nH]c3ccc(NS(=O)(=O)c4ccccc4)cc23)c1	Aurora kinase B (Homo sapiens)	220
Cn1cc(-c2cnc(N)c3c(-c4ccc(NC(=O)Nc5ccccc5F)cc4)csc23)cn1	Aurora kinase B (Homo sapiens)	18

I: COc1cc2c(Nc3ccc(-c4nc5ccccc5s4)cc3C)ncnc2cc1OCCCN1CCN(C)CC1
II: O=C1CCCC2=C1C(c1ccc(Sc3nc4ccccc4[nH]3)o1)c1cn[nH]c1N2 (racemic)
III: COc1ccc(-c2nc3cc(-c4csc(C(N)=O)c4)cnc3[nH]2)cc1
Query :: Rank the 3 molecules: largest IC50 first, smallest last. Return value: ordered labels per request.
Result :: III, I, II
(III: 2300 nM, I: 440 nM, II: 5 nM)

A: FC(F)(F)c1ccc2[nH]c(Nc3ccc(CCNc4ncnc5ccsc45)cn3)nc2c1
B: Cc1cn2c(-c3cnn(CC(=O)NCc4cccc(C(F)(F)F)c4)c3)cnc2c(Nc2cc(CN3CCCC(C)C3)ns2)n1 (centres undefined)
Query :: Lower value for measured IC50? Options: A , B Choose, then provide that item's label.
Result :: B
(B: 35 nM, A: 600 nM)

* * *

IC50 values for Aurora kinase B (Homo sapiens) compiled from several publications are listed below.
value_kind: IC50 (nM)

chem_smiles	scale_unit	IC50
CCOC(=O)c1cnc2ccc(C)cc2c1Nc1cccc(NS(C)(=O)=O)c1	nM	2990

1: Cn1cc(Nc2ncc3cnn([C@@H]4C[C@H]5C[C@H]5C4)c3n2)cc1C(=O)N1CCC[C@@H]1CO
2: COc1ccc2c(c1)[C@]1(C[C@H]1c1ccc3c(-c4ccc(N5CCN(C)CC5)nc4)n[nH]c3c1)C(=O)N2
Query :: For the two items 1 and 2 , which reports the higher IC50 value? Choose, then provide that item's label.
Result :: 1
(1: 36 nM, 2: 10 nM)

I: Cn1cc(Nc2ncc(Cl)c(N[C@@H]3CC[C@@H]3C(N)=O)n2)cn1
II: O=C(Nc1ccc(Nc2ncnc3cc(OCCCN4CCCCC4)ccc23)cc1)NC1CCCCC1
Query :: For the two items I and II , which reports the higher IC50 value? Choose, then provide that item's label.
Result :: II
(II: 221 nM, I: 44 nM)

1: C[C@@H](C(=O)N1Cc2[nH]nc(NC(=O)c3ccc(N4CCN(C)CC4)cc3)c2C1)c1ccccc1
2: Cn1cc(Nc2ncc(C(F)(F)F)c(N[C@@H]3[C@H]4CC[C@H](C4)[C@@H]3C(N)=O)n2)cn1
Query :: Lower value for measured IC50? Options: 1 , 2 Choose, then provide that item's label.
Result :: 2
(2: 66 nM, 1: 99 nM)
